Biological target: pEGFR, PC-9 cells (d746-750 EGFR) (Homo sapiens, UniProt P00533, DEL746-750)
Construct: pEGFR (Tyr1068) TR-FRET
Assay: Cellular EGFR phosphorylation assay (LANCE Ultra TR-FRET) in PC-9 cells
Type: cell-based
Conditions: 4 hours at 37° C., read-out: PC-9 pEGFR IC50
MEASURE NAME: IC50 (nM)

Use these answered entries as a reference point.
CCOc1nn([C@@H](C)CO)c2c1/C=C/c1n[nH]c3cnc(cc13)-c1c(C)nn(C)c1OC[C@H](C)N(CC)C2    1.24
CCOc1nn(C[C@H](C)O)c2c1/C=C/c1n[nH]c3cnc(cc13)-c1c(C)nn(C)c1O[C@@H](C)CN(C)C2    1.09
CCN1Cc2c(c(C)nn2CCO)/C=C/c2n[nH]c3cnc(cc23)-c2c(C)nn(C)c2O[C@H](C)C1    11.8
CCOc1nn([C@@H](C)CO)c2c1/C=C/c1n[nH]c3cnc(cc13)-c1c(C)nn(C)c1O[C@@H](C)CN(C)C2    0.91
CCOc1nn(CCO)c2c1/C=C/c1n[nH]c3c(C)nc(cc13)-c1cnn(C)c1O[C@@H](C)CN(CC)C2    14.4
CCOc1nn(CCO)c2c1/C=C/c1n[nH]c3cnc(cc13)-c1cnn(C)c1OC[C@H](C)N(CC)C2    24.3
CCOc1nn([C@H](C)CO)c2c1/C=C/c1n[nH]c3cnc(cc13)-c1c(C)nn(C)c1O[C@H](C)CN(C)C2    16.1
CCOc1nn([C@@H](C)CO)c2c1/C=C/c1n[nH]c3c(C)nc(cc13)-c1c(C)nn(C)c1O[C@@H](C)CNC2    69.5

(A) CCOc1nn(CCO)c2c1/C=C/c1n[nH]c3cnc(cc13)-c1c(C)nn(C)c1OC[C@@H](C)N(CC)C2
(B) CCc1nn([C@@H](C)CO)c2c1/C=C/c1n[nH]c3cnc(cc13)-c1c(C)nn(C)c1O[C@@H](C)CN(C)C2
Of A and B , whose reported IC50 is numerically smaller? Returns: label corresponding to the selected item. B

(I) CNc1nn([C@@H](C)CO)c2c1/C=C/c1n[nH]c3c(C)nc(cc13)-c1c(C)nn(C)c1O[C@@H](C)CN(C)C2
(II) CCOc1nn(CCO)c2c1/C=C/c1n[nH]c3cnc(cc13)-c1c(cnn1C)OCCN(C)C2
Of I and II , whose reported IC50 is numerically smaller? Returns: label corresponding to the selected item. I

* * *

Target: EGFR (D746-750) (Homo sapiens, UniProt P00533, DEL746-750)
Sequence (P00533 with tags, fused parts or gaps DEL746-750): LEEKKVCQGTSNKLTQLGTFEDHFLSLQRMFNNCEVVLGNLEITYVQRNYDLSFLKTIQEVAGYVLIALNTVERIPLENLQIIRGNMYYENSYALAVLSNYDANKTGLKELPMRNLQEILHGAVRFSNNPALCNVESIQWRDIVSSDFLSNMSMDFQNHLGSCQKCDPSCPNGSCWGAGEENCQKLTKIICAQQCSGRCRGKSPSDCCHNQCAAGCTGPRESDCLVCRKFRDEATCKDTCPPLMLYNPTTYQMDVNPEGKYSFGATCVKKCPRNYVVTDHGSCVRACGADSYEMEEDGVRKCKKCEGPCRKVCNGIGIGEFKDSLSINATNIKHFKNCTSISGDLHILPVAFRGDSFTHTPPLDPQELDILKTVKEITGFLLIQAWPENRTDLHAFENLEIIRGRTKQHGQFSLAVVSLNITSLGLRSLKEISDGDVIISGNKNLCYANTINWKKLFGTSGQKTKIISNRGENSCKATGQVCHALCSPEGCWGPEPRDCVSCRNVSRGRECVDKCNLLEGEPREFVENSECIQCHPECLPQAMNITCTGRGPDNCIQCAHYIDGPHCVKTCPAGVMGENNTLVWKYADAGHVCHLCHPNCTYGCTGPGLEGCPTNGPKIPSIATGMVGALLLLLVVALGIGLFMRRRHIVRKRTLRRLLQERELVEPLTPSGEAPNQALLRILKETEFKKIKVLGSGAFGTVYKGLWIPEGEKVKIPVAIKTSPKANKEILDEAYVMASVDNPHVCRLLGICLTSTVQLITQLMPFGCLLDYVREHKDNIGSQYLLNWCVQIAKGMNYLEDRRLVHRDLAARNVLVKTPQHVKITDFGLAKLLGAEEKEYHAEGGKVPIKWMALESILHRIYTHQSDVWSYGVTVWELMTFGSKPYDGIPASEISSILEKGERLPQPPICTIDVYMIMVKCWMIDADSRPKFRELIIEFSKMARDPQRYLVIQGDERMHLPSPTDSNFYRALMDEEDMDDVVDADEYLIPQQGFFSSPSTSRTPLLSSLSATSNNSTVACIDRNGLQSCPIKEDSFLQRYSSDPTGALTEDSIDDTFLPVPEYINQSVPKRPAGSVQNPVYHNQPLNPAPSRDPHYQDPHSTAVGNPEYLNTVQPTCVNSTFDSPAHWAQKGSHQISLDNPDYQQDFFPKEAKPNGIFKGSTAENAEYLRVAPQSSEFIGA
Test: HotSpot radiometric kinase assay, inhibition of EGFR 746-750 mutant
Conditions: 33P ATP, room temperature, 120 m
MEASURE NAME: IC50 (nM)

CCc1nn([C@@H](C)CO)c2c1/C=C/c1n[nH]c3cnc(cc13)-c1c(C)nn(C)c1O[C@@H](C)CN(C)C2    0.43
Cc1nn([C@@H](C)CO)c2c1/C=C/c1n[nH]c3c(C)nc(cc13)-c1c(C)nn(C)c1O[C@@H](C)CN(C)C2    0.8
CCOc1nn(CCO)c2c1/C=C/c1n[nH]c3cnc(cc13)-c1c(C)nn(C)c1O[C@H](C)CN(C(C)C)C2    1.24
Cc1nc2cc3c(n[nH]c13)/C=C/c1c(OC(C)C)nn(CCO)c1CN(C)C[C@H](C)Oc1c-2cnn1C    0.35

(1) CCc1nn(CCO)c2c1/C=C/c1n[nH]c3cnc(cc13)-c1c(C)nn(C)c1O[C@@H](C)CN(CC)C2
(2) Cc1nn(C)c2c1-c1cc3c(n[nH]c3cn1)/C=C/c1c(OCC#N)nn(CCO)c1CN(C)[C@@H](C)CO2
Larger number for IC50: 1 , or 2 ? Returns: label corresponding to the selected item. 1
(1: 0.42 nM, 2: 0.27 nM)

* * *

Biological target: EGFR (D770_N771insNPG) (Homo sapiens, UniProt P00533, INS770NPG)
Sequence (P00533 with tags, fused parts or gaps INS770NPG limits assumed): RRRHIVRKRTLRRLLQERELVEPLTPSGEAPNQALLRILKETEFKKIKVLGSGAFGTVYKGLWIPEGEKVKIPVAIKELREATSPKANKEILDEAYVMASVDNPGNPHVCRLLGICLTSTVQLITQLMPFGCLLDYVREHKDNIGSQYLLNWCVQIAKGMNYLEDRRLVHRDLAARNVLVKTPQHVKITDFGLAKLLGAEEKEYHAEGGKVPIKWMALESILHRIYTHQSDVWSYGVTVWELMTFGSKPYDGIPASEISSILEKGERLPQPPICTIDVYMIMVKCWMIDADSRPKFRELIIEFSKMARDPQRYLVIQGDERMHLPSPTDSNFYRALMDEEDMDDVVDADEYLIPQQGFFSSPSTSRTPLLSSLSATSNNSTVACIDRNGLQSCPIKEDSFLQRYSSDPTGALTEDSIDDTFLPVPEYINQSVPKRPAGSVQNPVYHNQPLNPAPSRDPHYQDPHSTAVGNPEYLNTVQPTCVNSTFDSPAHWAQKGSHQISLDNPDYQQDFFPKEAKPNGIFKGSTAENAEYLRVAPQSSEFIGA
Experiment: HotSpot radiometric kinase assay, inhibition of EGFR (D770_N771insNPG) mutant
Conditions: 33P ATP, room temperature, 120 m
pIC50: −log10 of the molar value.
MEASURE NAME: pIC50

Use these answered entries as a reference point.
CCOc1nn([C@@H](C)CO)c2c1/C=C/c1n[nH]c3c(C)nc(cc13)-c1cnn(C)c1O[C@@H](C)CN(C)C2    9.16
Cc1nn(C)c2c1-c1cc3c(n[nH]c3cn1)/C=C/c1c(OCC#N)nn(CCO)c1CN1CCC[C@@H]1CO2    9.74
Cc1nn(C)c2c1-c1cc3c(n[nH]c3cn1)/C=C/c1c(OCC#N)nn([C@@H](C)CO)c1CN1CCC[C@@H]1CO2    9.38
CCOc1nn(CCO)c2c1/C=C/c1n[nH]c3cnc(cc13)-c1c(C)nn(C)c1O[C@@H](C)CN(C(C)C)C2    9.49

(P) CCOc1nn(CCO)c2c1/C=C/c1n[nH]c3cnc(cc13)-c1cnn(C)c1O[C@H](C)CN(C(C)C)C2
(Q) Cc1nn(C)c2c1-c1cc3c(n[nH]c3c(C)n1)/C=C/c1c(OCC#N)nn([C@@H](C)CO)c1CN(C)C[C@H](C)O2
(R) Cc1nn(CCO)c2c1/C=C/c1n[nH]c3c(C)nc(cc13)-c1cnn(C)c1O[C@@H](C)CN(C)C2
Please rank these molecules by pIC50 in descending order. Respond with an ordered listing of the labels, as requested. Q, P, R

* * *

Biological target: pEGFR, A431 cells (wildtype EGFR) (Homo sapiens, UniProt P00533)
Construct: pEGFR (Tyr1068) TR-FRET
Sequence (P00533 25-1210): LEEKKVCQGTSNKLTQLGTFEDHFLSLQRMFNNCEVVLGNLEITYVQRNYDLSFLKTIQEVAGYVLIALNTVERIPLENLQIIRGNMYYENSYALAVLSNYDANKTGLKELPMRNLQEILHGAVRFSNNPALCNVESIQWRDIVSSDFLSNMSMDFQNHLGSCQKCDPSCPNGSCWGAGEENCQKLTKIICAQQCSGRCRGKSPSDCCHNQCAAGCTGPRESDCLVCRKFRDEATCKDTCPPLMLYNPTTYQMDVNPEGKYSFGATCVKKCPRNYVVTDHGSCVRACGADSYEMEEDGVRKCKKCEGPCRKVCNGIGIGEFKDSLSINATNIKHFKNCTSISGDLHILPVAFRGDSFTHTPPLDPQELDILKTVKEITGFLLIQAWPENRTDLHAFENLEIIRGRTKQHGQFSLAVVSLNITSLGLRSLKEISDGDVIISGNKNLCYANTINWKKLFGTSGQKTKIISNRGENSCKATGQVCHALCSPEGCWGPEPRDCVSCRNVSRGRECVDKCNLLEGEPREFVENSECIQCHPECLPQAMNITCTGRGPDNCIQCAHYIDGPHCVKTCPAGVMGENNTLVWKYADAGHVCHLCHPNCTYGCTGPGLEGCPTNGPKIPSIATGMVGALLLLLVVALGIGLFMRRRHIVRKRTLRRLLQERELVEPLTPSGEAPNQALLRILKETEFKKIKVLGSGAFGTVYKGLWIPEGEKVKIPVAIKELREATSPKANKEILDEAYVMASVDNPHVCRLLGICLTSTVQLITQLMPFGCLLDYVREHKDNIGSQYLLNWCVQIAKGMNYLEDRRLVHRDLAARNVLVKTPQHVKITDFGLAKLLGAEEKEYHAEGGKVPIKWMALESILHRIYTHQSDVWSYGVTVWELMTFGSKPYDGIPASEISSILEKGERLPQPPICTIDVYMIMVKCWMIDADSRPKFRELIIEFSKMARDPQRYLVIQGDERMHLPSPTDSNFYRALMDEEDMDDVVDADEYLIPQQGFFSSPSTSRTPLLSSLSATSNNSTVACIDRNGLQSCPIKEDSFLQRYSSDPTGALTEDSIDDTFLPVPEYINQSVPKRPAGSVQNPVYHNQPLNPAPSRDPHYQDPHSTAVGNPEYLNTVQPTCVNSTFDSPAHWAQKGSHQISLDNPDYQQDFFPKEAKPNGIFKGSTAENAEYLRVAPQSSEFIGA
Assay: Cellular EGFR phosphorylation assay (LANCE Ultra TR-FRET) in A431 cells
Type: cell-based
Conditions: 4 hours at 37° C., 40 ng/mL EGF for the final 10 minutes, read-out: A431 pEGFR IC50
pIC50: −log10 of the molar value.
MEASURE NAME: pIC50

CCc1nn([C@@H](C)CO)c2c1/C=C/c1n[nH]c3cnc(cc13)-c1c(C)nn(C)c1O[C@@H](C)CN(C)C2 [Ex. 61]    7.68
CCOc1nn(CCO)c2c1/C=C/c1n[nH]c3cnc(cc13)-c1c(C)nn(C)c1O[C@@H](C)CN(C1CC1)C2 [Ex. 113]    7.96
Cc1nn(C)c2c1-c1cc3c(n[nH]c3cn1)/C=C/c1c(OCC#N)nn(CCO)c1CN1CCC[C@@H]1C(C)O2 (single isomer, unassigned) [Ex. 50]    7.72
CCOc1nn(C[C@H](C)O)c2c1/C=C/c1n[nH]c3c(C)nc(cc13)-c1c(C)nn(C)c1O[C@@H](C)CN(C)C2 [Ex. 90]    8.07
CCOc1nn(CCO)c2c1/C=C/c1n[nH]c3cnc(cc13)-c1c(C)nn(C)c1O[C@@H](C)CN(C)C2 [Ex. 44]    8.00
CCOc1nn(CCO)c2c1/C=C/c1n[nH]c3cnc(cc13)-c1c(C)nn(C)c1OCCN(C)C2 [Ex. 68]    7.68
CCOc1nn([C@@H](C)CO)c2c1/C=C/c1n[nH]c3cnc(cc13)-c1cnn(C)c1O[C@@H](C)CN(C)C2 [Ex. 19]    8.00
CCOc1nn([C@@H](C)CO)c2c1/C=C/c1n[nH]c3c(C)nc(cc13)-c1c(C)nn(C)c1O[C@@H](C)[C@H]1CCCN1C2 [Ex. 179]    8.06
CCN1Cc2c(c(OC(C)C)nn2CCO)/C=C/c2n[nH]c3cnc(cc23)-c2cnn(C)c2O[C@H](C)C1 [Ex. 10]    7.28

(1) CCOc1nn(CCO)c2c1/C=C/c1n[nH]c3cnc(cc13)-c1c(C)nn(C)c1OC[C@@H](C)N(C1CC1)C2 [Ex. 114]
(2) [2H]C([2H])([2H])C([2H])([2H])Oc1nn([C@@H](C)CO)c2c1/C=C/c1n[nH]c3cnc(cc13)-c1c(C)nn(C)c1O[C@@H](C)CN(C)C2 [Ex. 87]
(3) CCN1Cc2c(c(OCC#N)nn2CCO)/C=C/c2n[nH]c3cnc(cc23)-c2c(C)nn(C)c2O[C@@H](C)C1 [Ex. 23]
(4) CCc1nn(CCO)c2c1/C=C/c1n[nH]c3cnc(cc13)-c1c(C)nn(C)c1O[C@@H](C)CN(CC)C2 [Ex. 62]
(5) Cc1c2c(nn1C)CN(C)CCOc1c(cnn1C)-c1cc3c(n[nH]c3cn1)/C=C/2 [Ex. 73]
Exam item: list the entries in increasing order of pIC50. Respond with an ordered listing of the labels, as requested. 5, 3, 1, 4, 2
(5: 6.25, 3: 7.37, 1: 7.65, 4: 7.88, 2: 8.23)
